Taken from PubChem BioAssay AID1259407.

- Tested on: CCRIS mutagenicity, Ames/micronucleus/aberration tests
- test_summary: CCRIS mutagenicity studies
- settings: Test System: AMES SALMONELLA TYPHIMURIUM; Strain/Indicator: TA100; Metabolic Activation: RAT, LIVER, S-9, AROCLOR; Method: STANDARD PLATE
Active and inactive are the calls of the source. No rule for the calls is given here.
Give one outcome, nothing more. List: yes for active, no for inactive

Example cases with answers are listed next.
C[C@@H]1C[C@@H]([C@H](O)CC2CC(=O)NC(=O)C2)C(=O)[C@@H](C)C1 | no
O=[N+]([O-])c1cc2c(cc1Cl)Oc1cc(Cl)c(Cl)cc1O2 | yes
C=CC(=O)O | no

Q: Please state the recorded outcome for this compound: Cc1cc(C(C)(C)C)c(O)c(C(C)(C)C)c1
A: no

Q: Please do the same for Clc1cccc(Cl)c1 as well.
A: no

Q: What about this compound? CC(C)(C)CBr
A: no
